Reference for the values: ChEMBL document CHEMBL1201862

Tested on: MDA-MB-231
Assay: NCI tumour cell line growth inhibition, 48 h
Calls of active or inactive are those of the source. Cut-off read from the data, not from the text of the source: active = GI50 up to about 1.1 µM and inactive = higher.
QUANTITY: GI50

NC(CSC1c2ccccc2-c2ccccc21)C(=O)O (configuration not stated)	> 100 µM (inactive)
Oc1ccccc1C(Sc1nc2ccccc2s1)Sc1nc2ccccc2s1	> 100 µM (inactive)
N#Cc1c(-c2ccc(Cl)cc2)cc(-c2ccc(Nc3ccnc4cc(Cl)ccc34)cc2)nc1N	> 100 µM (inactive)
CCCCCCCCCCCCCCCCS(=O)(=O)c1ccc(NN)cc1	> 10 µM (inactive)
C[C@H](NC(=O)C(C)(Cc1ccc(O)cn1)NC(=O)c1ccccc1)c1ccccc1 (some centres not stated)	> 100 µM (inactive)
COc1ccc(NC2CC(C)N(C(=O)c3ccccc3)O2)cc1 (configuration not stated)	> 10 µM (inactive)
NC(=O)N/N=C\c1ccccc1OCc1cccc(COc2ccccc2/C=N\NC(N)=O)n1	14.6 µM (inactive)
O=C(COC(c1ccc(F)cc1)c1ccc(F)cc1)N1CCN(CCCc2ccccc2)CC1	3.22 µM (inactive)
O=C(CCc1ccc(O)c(O)c1)NCCc1ccc(O)c(O)c1	25.6 µM (inactive)
Cc1ccc(C(=N)c2ccccc2Cc2cccc3ccccc23)c2ccccc12	> 100 µM (inactive)
O=C1CC2C=CC(O)C(C1)C2 (configuration not stated)	> 100 µM (inactive)
CC1(C)CC(=O)C2=C(C1)OC1=C(CC(C)(C)CC1=O)C2c1ccccc1Cl (configuration not stated)	89.7 µM (inactive)
CCOC(=O)C(Cc1cccn1C(=O)OC(C)(C)C)[N+](=O)[O-] (configuration not stated)	19 µM (inactive)
COc1cc2c(cc1OC)C1Cc3ccccc3CCN1CC2 (configuration not stated)	> 100 µM (inactive)
O=C1C(/N=N/c2ccc(-c3nc4ccccc4[nH]3)cc2)NC(=S)N1c1ccccc1 (configuration not stated)	> 100 µM (inactive)
CCN(CC)C(=S)SC(C(=O)Nc1nnc(-c2ccccc2)o1)c1ccccc1 (configuration not stated)	34.1 µM (inactive)
O=C1/C(=C/c2ccc3c(c2)CCC3)Cc2cc3c(cc21)CCC3	76.9 µM (inactive)
CSc1nc(C)c2c(n1)N(c1ccc(Cl)cc1)CC2	42.3 µM (inactive)
O=C(CCC(C(=O)OCc1ccccc1)C(=O)OCc1ccccc1)Nc1ccc(OCc2ccccc2)cc1	22.6 µM (inactive)
N#Cc1c(Cl)cccc1Oc1ccc(S(=O)(=O)N/C(=N\O)Nc2ccc(Cl)cc2)cc1	16.3 µM (inactive)
CC1(O)CC23CC(O)C4(O)C(CC(O)C4(C)C)C(C)(O)C2CCC1C3O (configuration not stated)	> 100 µM (inactive)
C/C(=N\N=C(N)N)c1c(C(=O)OCCCCCCOC(=O)c2nc3sccn3c2/C(C)=N/N=C(N)N)nc2sccn12	> 100 µM (inactive)

====

Test system: MDA-MB-435
Assay: NCI tumour cell line growth inhibition, 48 h
Active and inactive are the calls of the source. No stated cut-off is given here; in the data, active = GI50 up to about 1.1 µM and inactive = higher.
Possible outcomes: active, inactive

CC12CP(=O)(O)CC1C2(Cl)Cl (configuration not stated)	inactive
Nc1ncnc2c1ncn2C1OC(CO)C(O)C1O (configuration not stated)	inactive
Cc1c(C(=O)OCc2ccccc2)[n+]([O-])c2ccccc2[n+]1[O-]	inactive
O=C1c2c(O)cccc2C(C(=O)CCCC(=O)C2c3cccc(O)c3C(=O)c3c(O)cccc32)c2cccc(O)c21	active
COC(=O)C(COC(=O)/C=C/c1ccc(OC(C)=O)c(OC(C)=O)c1)NC(=O)/C=C/c1ccc(OC(C)=O)c(OC(C)=O)c1 (configuration not stated)	inactive
COc1cc(/C=N\NC(=O)C[N+](C)(C)C)cc(OC)c1OC	inactive
CC(NC(=O)C(CC(=O)OCc1ccccc1)NC(=O)OCc1ccccc1)c1ccccc1 (configuration not stated)	inactive
COC1C(O)C(C)OC(OC2C(Oc3cccc4c(O)c5c(=O)oc6ccc(C)c7c(=O)oc(c34)c5c67)OC(C)C(O)C2O)C1O (configuration not stated)	inactive
NC1=NCCN1CC(=O)O	inactive
CC(O)=C1C(=O)CCC1=O	inactive
C1CNCCNCCN1	inactive
C[C@H]1OC(=O)[C@@H]2N=NN(Cc3ccccc3)[C@H]12	inactive
C/C=C/[C@H]1O[C@@](O)([C@@H](C)[C@H](O)[C@H](C)[C@H]2OC(=O)/C(OC)=C/C(C)=C/[C@@H](C)[C@@H](O)[C@@H](CC)[C@@H](O)[C@H](C)C/C(C)=C/C=C/[C@@H]2OC)C[C@H](OC2CC(O)C(OC(N)=O)C(C)O2)[C@@H]1C (some centres not stated)	active
O=C(Cc1ccccc1)NNc1nc(NNC(=O)c2ccncc2)nc(Nc2ccc([N+](=O)[O-])cc2)n1	inactive
CCOP(=O)(OCC)/C(C#N)=C/c1nccn1C	inactive
O=C1NC(=O)C2(CCC(O)C2)c2cc[n+]([O-])cc21 (configuration not stated)	inactive
Oc1ccc(C(O)(c2ccccc2)c2ccccc2)c2ccccc12	active
Cc1ccc(N)cc1.O=S(=O)(O)/C(=C\c1ccccc1)c1ccccc1	inactive
COc1ccc(NC2CC(C)N(C(=O)c3ccccc3)O2)cc1 (configuration not stated)	inactive
O=c1c2cc([N+](=O)[O-])cnc2sn1-c1ccc(Oc2ccccc2)cc1	inactive
Oc1ccc2ccccc2c1/N=N/c1ccc(Cl)cc1	inactive
COc1cc(O)c(C(C)=O)c(O)c1	inactive
O=C1/C(=C/c2ccccc2)CCCC1CN1CCCCC1 (configuration not stated)	inactive
Clc1ccc2c(NCCNC3CCCCC3)ccnc2c1	inactive
NC1CC(=O)c2sccc21 (configuration not stated)	inactive
CN1CCN(C(=S)N(C(=O)c2cccs2)C2CCCCC2)CC1	inactive
O=C1C(Cl)=C(N2CCC[C@@H]2CO)C(=O)c2c(O)ccc(O)c21	inactive
[N-]=[N+]=NC1=C(C(=O)c2ccccc2)C(=O)c2cccc3cccc1c23	inactive
C[C@]12C=CC(=O)C=C1CC[C@@H]1[C@@H]2CC[C@@]2(C)[C@H]1CC[C@]2(O)C(N)=O	inactive
CCN(CC)C(=O)CCNC(C)Cc1c[nH]c2ccccc12 (configuration not stated)	inactive
CC1(C)CC(=O)C2=C(C1)OC1=C(CC(C)(C)CC1=O)C2c1ccccc1Cl (configuration not stated)	inactive
O=C1c2c(O)cccc2Cc2cc(CO)cc(O)c21	inactive
